# Test system: Hepatitis C virus
# TEST_SUMMARY: Antiviral activity against HCV in human Huh7 cells after 72 hrs by cell based luciferase reporter assay
# Format: functional, organism-based, Hepacivirus hominis
# SETUP_CONDITIONS: Huh-7, 72 h
READOUT_KIND: pEC50
// pEC50: -log10(molar conc.)

Answered examples (3):
- MOL_SMILES: "C=C[C@@H]1C[C@]1(NC(=O)[C@@H]1C[C@@H](n2cc(-c3cc(Br)cc(Br)c3)nn2)CN1C(=O)[C@@H](NC(=O)NC1CCCC1)C(C)(C)C)C(=O)NS(=O)(=O)C1CC1"
  TESTED_ON: "Hepatitis C virus"
  pEC50: 6.98
- MOL_SMILES: "C=C[C@@H]1C[C@]1(NC(=O)[C@@H]1C[C@@H](n2cc(-c3ccccc3Cl)nn2)CN1C(=O)[C@@H](NC(=O)OC1CCCC1)C(C)(C)C)C(=O)NS(=O)(=O)C1CC1"
  TESTED_ON: "Hepatitis C virus"
  pEC50: 6.66
- MOL_SMILES: "C=C[C@@H]1C[C@]1(NC(=O)[C@@H]1C[C@@H](n2cc(-c3cc(Br)cc(Br)c3)nn2)CN1C(=O)[C@@H](NC(=O)OC1CCCC1)C(C)(C)C)C(=O)NS(=O)(=O)C1(C)CC1"
  TESTED_ON: "Hepatitis C virus"
  pEC50: 7.11

So what does the record say about pEC50 for "C=C[C@@H]1C[C@]1(NC(=O)[C@@H]1C[C@@H](n2cc(-c3cccc(Br)c3)nn2)CN1C(=O)[C@@H](NC(=O)OC1CCCC1)C(C)(C)C)C(=O)NS(=O)(=O)C1CC1" ?
6.68
